The measurements presented in this section are drawn from paper PMC3460867.

biological target: LipU (Mycobacterium tuberculosis); experiment: biochemical; assay type: biochemical; conditions: Apparent K i, pNPC4
Sequence (O53424 whole entry): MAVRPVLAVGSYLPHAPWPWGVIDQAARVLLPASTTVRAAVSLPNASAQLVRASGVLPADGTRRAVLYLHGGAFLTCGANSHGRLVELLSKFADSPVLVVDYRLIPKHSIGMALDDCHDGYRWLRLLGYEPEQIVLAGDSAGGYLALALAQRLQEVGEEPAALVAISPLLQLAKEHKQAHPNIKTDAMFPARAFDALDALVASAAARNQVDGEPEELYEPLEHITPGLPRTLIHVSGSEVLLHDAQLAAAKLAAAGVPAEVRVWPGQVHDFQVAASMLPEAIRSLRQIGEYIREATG
metric name: Ki (µM)
Give just the number in µM; leave the unit off.

query: Suppose we examine the compound COc1nn(-c2cccc(Oc3ccccc3)c2)c(=O)o1 [MmPPOX] ; what Ki value has been reported?
result: 5.1

###

Kindly state Ki for each of the entries shown.
Give just the number in µM; leave the unit off.

query: Provide the documented Ki with UniProt I6Y2J4 as the system for CCCCCCCCCCC[C@@H](C[C@@H]1OC(=O)[C@H]1CCCCCC)OC(=O)[C@H](CC(C)C)NC=O [THL, Tetrahydrolipstatin]
Sequence (I6Y2J4 whole entry): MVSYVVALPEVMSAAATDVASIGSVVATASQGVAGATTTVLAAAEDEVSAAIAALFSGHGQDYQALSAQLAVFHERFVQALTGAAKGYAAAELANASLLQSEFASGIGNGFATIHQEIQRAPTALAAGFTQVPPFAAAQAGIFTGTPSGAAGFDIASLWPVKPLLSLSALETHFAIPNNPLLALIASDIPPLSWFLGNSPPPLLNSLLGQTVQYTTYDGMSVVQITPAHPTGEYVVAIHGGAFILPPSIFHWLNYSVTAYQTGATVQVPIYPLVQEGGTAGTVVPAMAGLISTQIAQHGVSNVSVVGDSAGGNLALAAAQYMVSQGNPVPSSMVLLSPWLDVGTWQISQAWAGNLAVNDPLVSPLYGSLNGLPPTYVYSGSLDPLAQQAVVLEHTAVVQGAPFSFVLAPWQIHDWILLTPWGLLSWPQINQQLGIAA
result: 3.2

query: Provide the documented Ki with UniProt I6Y2J4 as the system for COc1nn(-c2cccc(Oc3ccccc3)c2)c(=O)o1
result: 7.7

###

target: Cut6 (Mycobacterium tuberculosis, UniProt O53581); assay: biochemical; assay type: biochemical; settings: Apparent K i, Cut6; pNPC4
Sequence (O53581 44-336): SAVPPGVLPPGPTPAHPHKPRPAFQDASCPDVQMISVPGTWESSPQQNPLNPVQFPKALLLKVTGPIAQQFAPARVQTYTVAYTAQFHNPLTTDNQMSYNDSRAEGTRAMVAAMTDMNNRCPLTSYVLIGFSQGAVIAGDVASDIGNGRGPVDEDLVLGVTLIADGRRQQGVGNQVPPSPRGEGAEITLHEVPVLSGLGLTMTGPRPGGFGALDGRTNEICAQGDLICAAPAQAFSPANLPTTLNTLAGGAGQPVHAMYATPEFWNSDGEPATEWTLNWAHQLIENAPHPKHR
pKi: −log10 of the molar value.
metric name: pKi

query: Suppose we examine the molecule COc1nn(-c2cccc(Oc3ccccc3)c2)c(=O)o1 ; what pKi value has been reported?
result: < 3.00

###

target: Cut6 (Mycobacterium tuberculosis); test: biochemical; type: biochemical; details: Apparent K i, Cut6; pNPC4; value of the text
metric name: Ki (mM)
Give just the number in mM; leave the unit off.

query: Suppose we examine the compound COc1nn(-c2cccc(Oc3ccccc3)c2)c(=O)o1 ; what Ki value has been reported?
result: 6.4

###

molecular target: LipC (Mycobacterium tuberculosis, UniProt P96402); test: biochemical; assay type: biochemical; details: LipC; pNPC4; read-out: Apparent K i
Sequence (P96402 whole entry): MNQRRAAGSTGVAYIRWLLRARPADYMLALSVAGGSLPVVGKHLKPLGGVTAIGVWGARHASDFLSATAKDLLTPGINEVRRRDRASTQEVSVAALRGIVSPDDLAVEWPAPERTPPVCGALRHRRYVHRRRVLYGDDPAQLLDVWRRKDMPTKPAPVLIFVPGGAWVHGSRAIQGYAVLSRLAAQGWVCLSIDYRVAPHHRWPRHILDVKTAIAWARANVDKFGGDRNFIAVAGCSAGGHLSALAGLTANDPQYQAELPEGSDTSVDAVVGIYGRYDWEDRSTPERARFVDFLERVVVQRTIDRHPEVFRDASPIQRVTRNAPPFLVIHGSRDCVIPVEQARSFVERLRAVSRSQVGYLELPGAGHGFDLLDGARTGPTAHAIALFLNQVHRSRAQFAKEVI
pKi: −log10 of the molar value.
metric name: pKi

query: Suppose we examine the compound CCCCCCCCCCC[C@@H](C[C@@H]1OC(=O)[C@H]1CCCCCC)OC(=O)[C@H](CC(C)C)NC=O [THL, Tetrahydrolipstatin] ; what pKi value has been reported?
result: < 3.00
